Test system: influenza A virus
Condition details: dog
I'd appreciate it if you could supply cell viability rate values for the items below.

Worked examples follow.
Reported cell viability rate for CN[C@@H](C)[C@H](O)c1ccccc1 [LEP, L-ephedrine] : what is it? ≥ 70%

Could you tell me which cell viability rate is on file for CN[C@@H](C)[C@@H](O)c1ccccc1 [DPEP, D-pseudoephedrine] ? ≥ 70%

New cases:
Reported cell viability rate, compound C[C@@H]([C@H](O)c1ccccc1)N(C)C [LMEP, L-methylephedrin] : ____ ≥ 70%

----------
Please go through the items and note down their viability at 3.91 µg/mL.
Test system: influenza A virus
Test summary: microbe, parasite or virus in culture
Condition details: MDCK, 48 h, read-out: Cell survival rate
One number for each entry, in %.

Please review the following examples before continuing.
Query: viability at 3.91 µg/mL; subject: `CN[C@@H](C)[C@H](O)c1ccccc1` 61.5

What value of viability at 3.91 µg/mL has been reported for the following molecule? `O=C(O)/C=C/c1ccccc1` 27.9

So what's the measured viability at 3.91 µg/mL for this one? `CC1(C)[C@@H](O[C@H]2O[C@H](C(=O)O)[C@@H](O)[C@H](O)[C@H]2O[C@@H]2O[C@H](C(=O)O)[C@@H](O)[C@H](O)[C@H]2O)CC[C@]2(C)[C@H]3C(=O)C=C4[C@@H]5C[C@@](C)(C(=O)O)CC[C@]5(C)CC[C@@]4(C)[C@]3(C)CC[C@@H]12` 31.1

State the recorded viability at 3.91 µg/mL for this entry: `N#C[C@H](O[C@@H]1O[C@H](CO[C@@H]2O[C@H](CO)[C@@H](O)[C@H](O)[C@H]2O)[C@@H](O)[C@H](O)[C@H]1O)c1ccccc1` 29

Record request: viability at 3.91 µg/mL value, item `OC/C=C/c1ccccc1` 25

Could you tell me viability at 3.91 µg/mL for each of these molecules? They are listed below.
1. C[C@@H]([C@H](O)c1ccccc1)N(C)C
2. CN[C@@H](C)[C@@H](O)c1ccccc1

1. 66.6
2. 63.9
